The values you see were collected from patent US20230240297A1.

Tested on: ZEAMA Sileno
test.method.notes: Seed treatment with safener; post-emergence herbicide application
Assay type: in vivo, maize
experimental.context: HER dose 32 g a.i./ha, Cyprosulfamide seed treatment 0.5 g a.i./kg seed, Final assessment
We label by threshold. Values of HER effect + SAF (crop damage with safener) strictly beneath 5% are satisfied. Values of 5% and up are not satisfied.

# count of solved cases: 2
C=CCOC(=O)C1CC(NC(=O)C2(C=C)CC(c3cc(F)cc(F)c3)=NO2)CO1 (mixture of isomers) ... satisfied
COC(=O)C1(C)CC(NC(=O)C2(C(C)(F)F)CC(c3cc(F)cc(F)c3)=NO2)CO1 (mixture of isomers) ... not satisfied

Query: Input COC(=O)C1C=CC(NC(=O)C2(C(F)(F)F)CC(c3cccc(F)c3)=NO2)C1 (stereo not shown) ; condition: HER effect + SAF (crop damage with safener) strictly below 5%. Does it hold?
Response: not satisfied

Query: Input CCOC(=O)C1C=CC(NC(=O)C2(C(F)(F)F)CC(c3ccccc3)=NO2)C1 (stereo not shown) ; condition: HER effect + SAF (crop damage with safener) strictly below 5%. Does it hold?
Response: satisfied

Query: Input C=CC1(C(=O)NC2COC(C(=O)OC)C2)CC(c2cc(F)cc(F)c2)=NO1 (stereo not shown) [Example 1.70] ; condition: HER effect + SAF (crop damage with safener) strictly below 5%. Does it hold?
Response: not satisfied

Query: Input C=CCOC(=O)C1CC(NC(=O)C2(C)CC(c3cc(F)cc(F)c3)=NO2)CO1 (mixture of isomers) ; condition: HER effect + SAF (crop damage with safener) strictly below 5%. Does it hold?
Response: not satisfied

###

System: ZEAMA Abraxas
test.method.notes: Tank-mix; post-emergence, crop damage with and without safener
Type: in vivo, maize
experimental.context: HER 8 g a.i./ha, cyprosulfamide 50 g a.i./ha
outcome.measure: Reduction [Difference]
Please give only the number in your answer, with no unit.

Reference set (6 entries):
C=CC1(C(=O)NC2COC(C(=O)OCc3ccc(OC)cc3)C2)CC(c2cc(C)cc(F)c2)=NO1 (mixture of isomers) ... 27
C=CC1(C(=O)NC2COC(C(=O)OC)C2)CC(c2cc(C)cc(F)c2)=NO1 (mixture of isomers) ... 41
CC1(C(=O)NC2COC(C(=O)OCc3cccc(F)c3)C2)CC(c2cc(F)cc(F)c2)=NO1 (mixture of isomers) ... 67
C=CC1(C(=O)NC2C=C(C(=O)OCCOC)OC2)CC(c2cc(C)cc(F)c2)=NO1 (stereo not shown) ... 30
C=CC1(C(=O)NC2CC=C(C(=O)OC)C2)CC(c2cc(F)cc(F)c2)=NO1 (mixture of isomers) ... 38
C=CC1(C(=O)NC2C=CC(C(=O)O)C2)CC(c2cc(F)cc(F)c2)=NO1 (stereo not shown) ... 54

Next:
Query: Give ZEAMA Abraxas Reduction [Difference] for the following molecule: COC(=O)C1C=CC(NC(=O)C2(C)CC(c3cc(F)cc(Cl)c3)=NO2)C1 (stereo not shown)
Response: 25

###

System: ZEAMA Sileno
test.method.notes: Seed treatment with safener; post-emergence herbicide application
Format: in vivo, maize
Design: scale not given here
experimental.context: HER dose 32 g a.i./ha, Cyprosulfamide 0.5 g a.i./kg seed, Final assessment, damage without safener - damage with safener
Listed here are compounds together with their documented Reduction [Difference].
Please give only the number in your answer, with no unit.

Reference set (3 entries):
COCCOC(=O)C1C=CC(NC(=O)C2(C(F)(F)F)CC(c3cc(F)cc(C#N)c3)=NO2)C1 (stereo not shown) [Example 1.2] ... 78
C=CC1(C(=O)NC2COC(C(=O)OC)C2)CC(c2cc(C)cc(F)c2)=NO1 (mixture of isomers) [Example 1.71] ... 29
CCCSCCOC(=O)C1C=CC(NC(=O)C2(C)CC(c3cc(F)cc(F)c3)=NO2)C1 (stereo not shown) [Example 1.34] ... 35

Next:
Query: Give ZEAMA Sileno Reduction [Difference] for the following compound: CCOC(=O)C1C=CC(NC(=O)C2(C(F)(F)F)CC(c3ccccc3)=NO2)C1 (stereo not shown) [Example 1.9]
Response: 85

###

Test system: ZEAMA Sileno
test.method.notes: Seed treatment with safener; post-emergence herbicide application
Format: in vivo, maize
experimental.context: HER dose 8 g a.i./ha, no safener, Final assessment
We label by threshold. Values of HER effect (crop damage, herbicide without safener) strictly beneath 80% are Y. Values of 80% and up are N.

CC1(C(=O)NC2C=CC(C(=O)OCCSCc3ccccc3)C2)CC(c2cc(F)cc(F)c2)=NO1 (centres unmarked) [Example 1.27] ... Y
C=CC1(C(=O)NC2COC(C(=O)OC)C2)CC(c2cc(F)cc(F)c2)=NO1 (mixture of isomers) [Example 1.68] ... N
CCOC(=O)C1=CCC(NC(=O)C2(C)CC(c3cccc(F)c3)=NO2)C1 (mixture of isomers) [Example 1.59] ... Y
C=CCOC(=O)C1CC(NC(=O)C2(C=C)CC(c3cc(F)cc(F)c3)=NO2)CO1 (mixture of isomers) [Example 1.83] ... Y

Query: Input C=CC1(C(=O)NC2C=CC(C(=O)OC)C2)CC(c2cc(F)cc(F)c2)=NO1 (centres unmarked) [Example 1.26] ; condition: HER effect (crop damage, herbicide without safener) strictly below 80%. Does it hold?
Response: Y

Query: Input COC(=O)C1C=CC(NC(=O)C2(C(F)(F)F)CC(c3cccc(F)c3)=NO2)C1 (centres unmarked) [Example 1.18] ; condition: HER effect (crop damage, herbicide without safener) strictly below 80%. Does it hold?
Response: N

Query: Input CN(C)C(=O)SCCOC(=O)C1C=CC(NC(=O)C2(C)CC(c3cc(F)cc(F)c3)=NO2)C1 (centres unmarked) [Example 1.29] ; condition: HER effect (crop damage, herbicide without safener) strictly below 80%. Does it hold?
Response: Y

Query: Input C=CC1(C(=O)NC2COC(C(=O)OC)C2)CC(c2cc(F)cc(F)c2)=NO1 (centres unmarked) [Example 1.70] ; condition: HER effect (crop damage, herbicide without safener) strictly below 80%. Does it hold?
Response: N

Query: Input COC(=O)C1=CC(NC(=O)C2(C)CC(c3cc(F)cc(F)c3)=NO2)CC1 (centres unmarked) [Example 1.63] ; condition: HER effect (crop damage, herbicide without safener) strictly below 80%. Does it hold?
Response: N

Query: Input COCCOC(=O)C1C=CC(NC(=O)C2(C(F)(F)F)CC(c3cc(F)cc(C#N)c3)=NO2)C1 (centres unmarked) [Example 1.2] ; condition: HER effect (crop damage, herbicide without safener) strictly below 80%. Does it hold?
Response: N

Query: Input C=CC1(C(=O)NC2C=C(C(=O)OC)OC2)CC(c2cc(C)cc(C)c2)=NO1 (centres unmarked) [Example 1.90] ; condition: HER effect (crop damage, herbicide without safener) strictly below 80%. Does it hold?
Response: N

Query: Input C=CC1(C(=O)NC2CC=C(C(=O)OC)C2)CC(c2cc(F)cc(F)c2)=NO1 (mixture of isomers) [Example 1.60] ; condition: HER effect (crop damage, herbicide without safener) strictly below 80%. Does it hold?
Response: Y

Query: Input C=CCOC(=O)C1CC(NC(=O)C2(C)CC(c3cc(F)cc(F)c3)=NO2)CO1 (mixture of isomers) [Example 1.75] ; condition: HER effect (crop damage, herbicide without safener) strictly below 80%. Does it hold?
Response: Y

###

Test system: ZEAMA Sileno
test.method.notes: Seed treatment with safener; post-emergence herbicide application
Type: in vivo, maize
experimental.context: HER dose 8 g a.i./ha, Cyprosulfamide seed treatment 0.5 g a.i./kg seed, Final assessment
Listed here are molecules together with their documented HER effect + SAF (crop damage with safener).
Numbers only; they are read as %.

Reference set (5 entries):
CCOC(=O)C1C=CC(NC(=O)C2(C(F)(F)F)CC(c3ccccc3)=NO2)C1 (stereo not drawn) ... 0
C=CCOC(=O)C1CC(NC(=O)C2(C)CC(c3cc(F)cc(F)c3)=NO2)CO1 (mixture of isomers) ... 0
C=CC1(C(=O)NC2COC(C(=O)OC)C2)CC(c2cc(F)cc(F)c2)=NO1 (mixture of isomers) [Example 1.68] ... 25
CCCSCCOC(=O)C1C=CC(NC(=O)C2(C)CC(c3cc(F)cc(F)c3)=NO2)C1 (stereo not drawn) ... 10
CCOC(=O)C1C=CC(NC(=O)C2(CF)CC(c3cc(F)cc(F)c3)=NO2)C1 (stereo not drawn) ... 5

Next:
Query: Complete the entry with HER effect + SAF (crop damage with safener) for CCOC(=O)C1=CCC(NC(=O)C2(C)CC(c3cccc(F)c3)=NO2)C1 (mixture of isomers)
Response: 0

###

Listed here are compounds together with their documented HER effect + SAF (crop damage with safener).
Test system: ZEAMA Sileno
test.method.notes: Seed treatment with safener; post-emergence herbicide application
Assay type: in vivo, maize
experimental.context: HER dose 2 g a.i./ha, Cyprosulfamide seed treatment 0.5 g a.i./kg seed, Final assessment
Numbers only; they are read as %.

Reference set (4 entries):
C=CC1(C(=O)NC2COC(C(=O)OCCCl)C2)CC(c2cc(F)cc(F)c2)=NO1 (mixture of isomers) [Example 1.82] ... 0
CCOC(=O)C1C=CC(NC(=O)C2(CF)CC(c3cc(F)cc(F)c3)=NO2)C1 (stereo not shown) [Example 1.17] ... 0
C=CC1(C(=O)NC2C=CC(C(=O)O)C2)CC(c2cc(F)cc(F)c2)=NO1 (stereo not shown) [Example 1.58] ... 0
C=CC1(C(=O)NC2COC(C(=O)OC)C2)CC(c2cc(F)cc(F)c2)=NO1 (mixture of isomers) [Example 1.68] ... 10

Query: Complete the entry with HER effect + SAF (crop damage with safener) for COC(=O)C1=CC(NC(=O)C2(C)CC(c3cc(F)cc(F)c3)=NO2)CC1 (stereo not shown) [Example 1.63]
Response: 0

Query: Complete the entry with HER effect + SAF (crop damage with safener) for CC1(C(=O)NC2C=CC(C(=O)O)C2)CC(c2cc(F)cc(F)c2)=NO1 (stereo not shown) [Example 1.36]
Response: 5

Query: Complete the entry with HER effect + SAF (crop damage with safener) for C=CC1(C(=O)NC2COC(C(=O)OC)C2)CC(c2cc(F)cc(F)c2)=NO1 (stereo not shown) [Example 1.70]
Response: 18
